- System: EBC-1
- PROCEDURE TEXT: relative viability (nuclei count vs DMSO), 5 days (fraction); higher = more cells survive
- CONDITION CONTEXT: first compound 0.8 µM
RECORDED ENDPOINT: relative viability
Number, no unit, nothing else.

COMPOUND	SYSTEM NAME	ASSAY VALUE
O=c1[nH]c2ccccc2n1C1CCN(CCCC(c2ccc(F)cc2)c2ccc(F)cc2)CC1 [Pimozide] + CC(C)C[C@H](NC(=O)[C@H](Cc1ccccc1)NC(=O)c1cnccn1)B(O)O [Bortezomib] (partner 0.002 µM)	EBC-1	0.532
O=c1[nH]c2ccccc2n1C1CCN(CCCC(c2ccc(F)cc2)c2ccc(F)cc2)CC1 [Pimozide] + CS(=O)(=O)CCNCc1ccc(-c2ccc3ncnc(Nc4ccc(OCc5cccc(F)c5)c(Cl)c4)c3c2)o1 [Lapatinib] (partner 2 µM)	EBC-1	0.192

Entry Cc1cnc(-c2cnc(NCCNc3ccc(C#N)cn3)nc2-c2ccc(Cl)cc2Cl)[nH]1 + CC(C)C[C@H](NC(=O)[C@H](Cc1ccccc1)NC(=O)c1cnccn1)B(O)O [Bortezomib] (partner 0.002 µM) ; relative viability = 0.546

###

As shown below, each of these compounds has a reported relative viability value.
- System: NCI-H1975
- PROCEDURE TEXT: relative viability (nuclei count vs DMSO), 5 days (fraction); higher = more cells survive
- CONDITION CONTEXT: first compound 0.02 µM

COMPOUND	relative viability
CC(=O)O[C@@]12CO[C@@H]1C[C@H](O)[C@@]1(C)C(=O)[C@H](O)C3=C(C)[C@@H](OC(=O)[C@H](O)[C@@H](NC(=O)OC(C)(C)C)c4ccccc4)C[C@@](O)([C@@H](OC(=O)c4ccccc4)[C@H]21)C3(C)C [Docetaxel] + Cc1nc(NC(=O)N2CCC[C@H]2C(N)=O)sc1-c1ccnc(C(C)(C)C(F)(F)F)c1 [Alpelisib] (partner 2 µM)	0.122
CC(=O)O[C@@]12CO[C@@H]1C[C@H](O)[C@@]1(C)C(=O)[C@H](O)C3=C(C)[C@@H](OC(=O)[C@H](O)[C@@H](NC(=O)OC(C)(C)C)c4ccccc4)C[C@@](O)([C@@H](OC(=O)c4ccccc4)[C@H]21)C3(C)C [Docetaxel] + C[C@@H](Oc1cc(-c2cnn(C3CCNCC3)c2)cnc1N)c1c(Cl)ccc(F)c1Cl [Crizotinib] (partner 1 µM)	0.142

Turning to the following compound.
Entry CC(=O)O[C@@]12CO[C@@H]1C[C@H](O)[C@@]1(C)C(=O)[C@H](O)C3=C(C)[C@@H](OC(=O)[C@H](O)[C@@H](NC(=O)OC(C)(C)C)c4ccccc4)C[C@@](O)([C@@H](OC(=O)c4ccccc4)[C@H]21)C3(C)C [Docetaxel] + NC(=O)Nc1cc(-c2cccc(F)c2)sc1C(=O)N[C@H]1CCCNC1 [AZD7762] (partner 0.2 µM) ; relative viability = 0.169

###

As shown below, each of these compounds has a reported relative viability value.
- System: NCI-H596
- PROCEDURE TEXT: relative viability (nuclei count vs DMSO), 5 days (fraction); higher = more cells survive
- CONDITION CONTEXT: first compound 4 µM
Number, no unit, nothing else.

Here's what some known entries look like.
COMPOUND	relative viability
Cc1sc2c(c1C)C(c1ccc(Cl)cc1)=N[C@@H](CC(=O)OC(C)(C)C)c1nnc(C)n1-2 [JQ1] + O=C(c1cc(Cc2n[nH]c(=O)c3ccccc23)ccc1F)N1CCN(C(=O)C2CC2)CC1 [Olaparib] (partner 8 µM)	0.321
Cc1sc2c(c1C)C(c1ccc(Cl)cc1)=N[C@@H](CC(=O)OC(C)(C)C)c1nnc(C)n1-2 [JQ1] + Cc1nc(Nc2ncc(C(=O)Nc3c(C)cccc3Cl)s2)cc(N2CCN(CCO)CC2)n1 [Dasatinib] (partner 0.075 µM)	0.29
Cc1sc2c(c1C)C(c1ccc(Cl)cc1)=N[C@@H](CC(=O)OC(C)(C)C)c1nnc(C)n1-2 [JQ1] + CC(C)C[C@H](NC(=O)[C@H](Cc1ccccc1)NC(=O)c1cnccn1)B(O)O [Bortezomib] (partner 0.002 µM)	0.344

Turning to the following compound.
Assay NCI-H596, sample Cc1sc2c(c1C)C(c1ccc(Cl)cc1)=N[C@@H](CC(=O)OC(C)(C)C)c1nnc(C)n1-2 [JQ1] + COc1cc2c(Oc3ccc(NC(=O)C4(C(=O)Nc5ccc(F)cc5)CC4)cc3F)ccnc2cc1OCCCN1CCOCC1 [Foretinib] (partner 0.25 µM) , relative viability read: 0.225
